target: CDK6/cyclin D3 (Homo sapiens) (UniProt P30281+Q00534); assay: Enzymatic radiometric [Km ATP] KinaseProfiler LeadHunter assay, kinase: CDK6/cyclinD3, catalogue number: 14-519KP The assay has been performed by Eurofins Discovery.; format: protein-complex assay; settings: ATP concentration 200.0 uM, Test compound concentration 10.0 uM
parameter measured: Activity
Returns: string containing the numeric result and its unit.

CC(C)[C@@H](Nc1ncnc2[nH]ccc12)c1ccc2c(c1)S(=O)(=O)CCC2
99%
Cc1nn(C)cc1-c1cc2c(N[C@H](c3ccc4c(c3)S(=O)(=O)CCC4)C(C)C)ncnc2[nH]1
106%
CC(C)[C@H](Nc1ncnc2[nH]c(-c3cnn(C)c3C#N)cc12)c1ccc2c(n1)OCCO2
102%

Give measured Activity for every item shown.
1. C[C@H](C(=O)O)[C@@H](NC(=O)c1ncnc2[nH]ccc12)c1ccc(Br)cc1
2. CNCc1cc(-c2cc3c(N[C@@H](c4ccc5c(c4)S(=O)(=O)CCC5)C(C)C)ncnc3[nH]2)co1
3. CC(C)[C@@H](Nc1ncnc2[nH]c(C(=O)N[C@@H]3CCN(C)C3)cc12)c1ccc2c(c1)S(=O)(=O)CCC2
4. CNC(=O)Cn1cc(-c2cc3c(N[C@@H](c4ccc5c(c4)S(=O)(=O)CCC5)C(C)C)ncnc3[nH]2)cn1
5. COc1ccc([C@H](Cc2nnn[nH]2)NC(=O)c2ncnc3[nH]ccc23)cc1
6. COc1ccc([C@@H](Cc2nnn[nH]2)NC(=O)c2ncnc3[nH]ccc23)cc1

Data returned:
97%
92%
99%
107%
102%
100%

Please fill in: Activity reported for CC(C)[C@H](Nc1ncnc2[nH]ccc12)c1ccc2c(c1)S(=O)(=O)CCC2 = 105%

----------
Field: Activity. Provide a value for each of the compounds that follow.
biological target: MAP kinase-interacting serine/threonine-protein kinase 2 (Homo sapiens) (UniProt Q9HBH9); assay: Enzymatic radiometric [Km ATP] KinaseProfiler LeadHunter assay, kinase: Mnk2, catalogue number: 14-664KP The assay has been performed by Eurofins Discovery.; settings: ATP concentration 120.0 uM, Test compound concentration 10.0 uM
Sequence (Q9HBH9 whole entry, looked up): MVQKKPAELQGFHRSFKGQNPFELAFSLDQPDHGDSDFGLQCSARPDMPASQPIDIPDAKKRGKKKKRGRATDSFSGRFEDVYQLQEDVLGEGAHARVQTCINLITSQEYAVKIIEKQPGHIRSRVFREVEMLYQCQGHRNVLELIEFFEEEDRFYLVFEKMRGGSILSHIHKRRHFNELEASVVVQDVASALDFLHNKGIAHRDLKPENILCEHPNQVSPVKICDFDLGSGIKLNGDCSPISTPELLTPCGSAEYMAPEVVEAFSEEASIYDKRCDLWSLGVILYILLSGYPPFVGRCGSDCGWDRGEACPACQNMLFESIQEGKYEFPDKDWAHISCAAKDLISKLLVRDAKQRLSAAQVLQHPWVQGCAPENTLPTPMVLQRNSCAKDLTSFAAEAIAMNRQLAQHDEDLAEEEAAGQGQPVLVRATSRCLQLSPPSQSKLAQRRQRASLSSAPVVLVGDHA
Answers are plain numbers, in %.

Example compounds with recorded Activity:
CNCc1cc(-c2cc3c(N[C@@H](c4ccc5c(c4)S(=O)(=O)CCC5)C(C)C)ncnc3[nH]2)co1
94
CNC(=O)Cn1cc(-c2cc3c(N[C@@H](c4ccc5c(c4)S(=O)(=O)CCC5)C(C)C)ncnc3[nH]2)cn1
94
CC(C)[C@H](Nc1ncnc2[nH]c(-c3cnn(C)c3C#N)cc12)c1ccc2c(n1)OCCO2
95
C[C@H](C(=O)O)[C@@H](NC(=O)c1ncnc2[nH]ccc12)c1ccc(Br)cc1
110
COc1ccc([C@@H](Cc2nnn[nH]2)NC(=O)c2ncnc3[nH]ccc23)cc1
84

Give measured Activity for every item shown.
1. CC(C)[C@@H](Nc1ncnc2[nH]c(C(=O)N[C@@H]3CCN(C)C3)cc12)c1ccc2c(c1)S(=O)(=O)CCC2
2. CC(C)[C@@H](Nc1ncnc2[nH]ccc12)c1ccc2c(c1)S(=O)(=O)CCC2
3. Cc1nn(C)cc1-c1cc2c(N[C@H](c3ccc4c(c3)S(=O)(=O)CCC4)C(C)C)ncnc2[nH]1

Data returned:
99
89
99

----------
target: Tyrosine-protein kinase JAK2 (Homo sapiens) (UniProt O60674); test: Enzymatic radiometric [Km ATP] KinaseProfiler LeadHunter assay, kinase: JAK2, catalogue number: 14-640KP The assay has been performed by Eurofins Discovery.; conditions: ATP concentration 45.0 uM, Test compound concentration 10.0 uM
Sequence (O60674 whole entry): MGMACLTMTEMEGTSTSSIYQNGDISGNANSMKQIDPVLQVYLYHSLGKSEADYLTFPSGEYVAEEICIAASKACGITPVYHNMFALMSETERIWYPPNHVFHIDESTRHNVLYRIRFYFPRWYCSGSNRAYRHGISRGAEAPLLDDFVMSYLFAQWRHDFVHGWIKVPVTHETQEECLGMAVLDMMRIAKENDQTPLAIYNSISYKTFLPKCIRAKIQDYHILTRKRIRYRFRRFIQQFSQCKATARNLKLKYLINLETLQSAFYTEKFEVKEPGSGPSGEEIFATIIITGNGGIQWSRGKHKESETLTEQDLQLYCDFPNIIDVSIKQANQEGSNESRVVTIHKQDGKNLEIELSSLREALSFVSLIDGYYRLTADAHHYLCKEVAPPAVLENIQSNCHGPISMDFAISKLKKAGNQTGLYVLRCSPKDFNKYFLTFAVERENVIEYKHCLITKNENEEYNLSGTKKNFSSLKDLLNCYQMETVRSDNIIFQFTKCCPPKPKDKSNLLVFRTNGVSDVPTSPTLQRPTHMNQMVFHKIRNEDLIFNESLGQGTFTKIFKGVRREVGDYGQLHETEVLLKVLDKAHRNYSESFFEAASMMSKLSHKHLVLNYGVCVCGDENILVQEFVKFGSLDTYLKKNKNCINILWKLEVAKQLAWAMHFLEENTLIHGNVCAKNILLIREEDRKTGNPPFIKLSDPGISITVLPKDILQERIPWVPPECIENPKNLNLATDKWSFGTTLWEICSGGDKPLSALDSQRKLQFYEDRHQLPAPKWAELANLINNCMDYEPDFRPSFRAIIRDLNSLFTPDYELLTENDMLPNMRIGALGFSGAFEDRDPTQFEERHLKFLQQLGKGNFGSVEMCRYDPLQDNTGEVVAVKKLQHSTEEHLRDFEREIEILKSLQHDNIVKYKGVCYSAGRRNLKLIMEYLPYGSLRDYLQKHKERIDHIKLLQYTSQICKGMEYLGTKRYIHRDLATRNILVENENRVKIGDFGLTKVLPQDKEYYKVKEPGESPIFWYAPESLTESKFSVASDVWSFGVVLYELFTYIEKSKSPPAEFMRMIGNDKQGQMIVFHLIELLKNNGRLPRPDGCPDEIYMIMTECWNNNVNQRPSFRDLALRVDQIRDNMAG
parameter measured: Activity (%)
One number for each entry, in %.

Example compounds with recorded Activity:
C[C@H](C(=O)O)[C@@H](NC(=O)c1ncnc2[nH]ccc12)c1ccc(Br)cc1
99
Cc1nn(C)cc1-c1cc2c(N[C@H](c3ccc4c(c3)S(=O)(=O)CCC4)C(C)C)ncnc2[nH]1
111
CC(C)[C@H](Nc1ncnc2[nH]ccc12)c1ccc2c(c1)S(=O)(=O)CCC2
99
CNC(=O)Cn1cc(-c2cc3c(N[C@@H](c4ccc5c(c4)S(=O)(=O)CCC5)C(C)C)ncnc3[nH]2)cn1
94

Give measured Activity for every item shown.
1. CNCc1cc(-c2cc3c(N[C@@H](c4ccc5c(c4)S(=O)(=O)CCC5)C(C)C)ncnc3[nH]2)co1
2. CC(C)[C@H](Nc1ncnc2[nH]c(-c3cnn(C)c3C#N)cc12)c1ccc2c(n1)OCCO2
3. COc1ccc([C@H](Cc2nnn[nH]2)NC(=O)c2ncnc3[nH]ccc23)cc1
4. CC(C)[C@@H](Nc1ncnc2[nH]ccc12)c1ccc2c(c1)S(=O)(=O)CCC2
5. COc1ccc([C@@H](Cc2nnn[nH]2)NC(=O)c2ncnc3[nH]ccc23)cc1
6. CC(C)[C@@H](Nc1ncnc2[nH]c(C(=O)N[C@@H]3CCN(C)C3)cc12)c1ccc2c(c1)S(=O)(=O)CCC2

Data returned:
1. 114
2. 115
3. 116
4. 110
5. 102
6. 106

Please fill in: Activity reported for Cn1ncc(-c2cc3c(N[C@@H](c4ccc5c(n4)OCCO5)C(C)(C)C)ncnc3[nH]2)c1C#N = 140

----------
Field: Activity. Provide a value for each of the compounds that follow.
molecular target: Rho-associated protein kinase 1 (Homo sapiens) (UniProt Q13464); assay: Enzymatic radiometric [Km ATP] KinaseProfiler LeadHunter assay, kinase: ROCK-I, catalogue number: 14-601KP The assay has been performed by Eurofins Discovery.; conditions: ATP concentration 70.0 uM, Test compound concentration 10.0 uM
Sequence (Q13464 2-1354 limits assumed): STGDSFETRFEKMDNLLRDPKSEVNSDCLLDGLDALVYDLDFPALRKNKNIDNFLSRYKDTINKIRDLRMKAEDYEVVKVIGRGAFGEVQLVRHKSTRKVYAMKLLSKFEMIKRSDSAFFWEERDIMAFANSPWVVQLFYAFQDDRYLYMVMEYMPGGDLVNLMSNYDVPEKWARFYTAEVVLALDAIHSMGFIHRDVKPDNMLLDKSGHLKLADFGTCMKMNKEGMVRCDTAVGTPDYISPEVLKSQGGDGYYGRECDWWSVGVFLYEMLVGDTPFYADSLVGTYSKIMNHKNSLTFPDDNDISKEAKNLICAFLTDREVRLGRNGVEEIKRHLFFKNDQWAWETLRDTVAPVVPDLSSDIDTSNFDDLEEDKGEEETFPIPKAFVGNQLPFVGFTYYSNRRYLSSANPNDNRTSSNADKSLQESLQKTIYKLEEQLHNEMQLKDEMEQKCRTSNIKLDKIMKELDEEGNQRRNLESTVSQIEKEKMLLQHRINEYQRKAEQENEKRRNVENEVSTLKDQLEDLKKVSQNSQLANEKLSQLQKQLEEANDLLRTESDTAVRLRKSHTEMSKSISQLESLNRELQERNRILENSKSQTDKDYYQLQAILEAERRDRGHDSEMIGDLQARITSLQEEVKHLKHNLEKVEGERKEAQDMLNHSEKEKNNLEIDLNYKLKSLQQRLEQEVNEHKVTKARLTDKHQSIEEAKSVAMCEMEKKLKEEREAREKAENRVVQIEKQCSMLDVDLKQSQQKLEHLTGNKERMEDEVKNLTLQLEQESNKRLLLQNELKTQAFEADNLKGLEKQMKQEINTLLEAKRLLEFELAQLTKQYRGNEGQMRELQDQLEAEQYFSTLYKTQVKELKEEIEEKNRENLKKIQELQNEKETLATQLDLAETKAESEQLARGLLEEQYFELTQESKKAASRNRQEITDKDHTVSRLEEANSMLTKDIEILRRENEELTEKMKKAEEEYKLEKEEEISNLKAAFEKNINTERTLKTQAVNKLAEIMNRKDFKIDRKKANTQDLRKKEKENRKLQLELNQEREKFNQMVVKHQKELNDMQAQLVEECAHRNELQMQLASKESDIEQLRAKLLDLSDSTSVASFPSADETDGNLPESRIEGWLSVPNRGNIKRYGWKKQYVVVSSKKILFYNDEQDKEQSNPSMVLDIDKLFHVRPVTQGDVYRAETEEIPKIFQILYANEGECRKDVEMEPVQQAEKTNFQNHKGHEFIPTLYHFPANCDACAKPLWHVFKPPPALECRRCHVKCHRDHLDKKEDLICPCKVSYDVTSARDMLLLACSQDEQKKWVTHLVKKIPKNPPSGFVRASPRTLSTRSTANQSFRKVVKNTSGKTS
Numbers only, in %.

COc1ccc([C@@H](Cc2nnn[nH]2)NC(=O)c2ncnc3[nH]ccc23)cc1
93
COc1ccc([C@H](Cc2nnn[nH]2)NC(=O)c2ncnc3[nH]ccc23)cc1
103
CC(C)[C@H](Nc1ncnc2[nH]ccc12)c1ccc2c(c1)S(=O)(=O)CCC2
115
CNCc1cc(-c2cc3c(N[C@@H](c4ccc5c(c4)S(=O)(=O)CCC5)C(C)C)ncnc3[nH]2)co1
102
CC(C)[C@H](Nc1ncnc2[nH]c(-c3cnn(C)c3C#N)cc12)c1ccc2c(n1)OCCO2
115
CNC(=O)Cn1cc(-c2cc3c(N[C@@H](c4ccc5c(c4)S(=O)(=O)CCC5)C(C)C)ncnc3[nH]2)cn1
104

Next compound, Activity to be filled in.
Note to self: Activity of Cn1ncc(-c2cc3c(N[C@@H](c4ccc5c(n4)OCCO5)C(C)(C)C)ncnc3[nH]2)c1C#N with Rho-associated protein kinase 1 (Homo sapiens) (UniProt Q13464) was 129

----------
biological target: Casein kinase II subunit alpha' (Homo sapiens) (UniProt P19784); assay: Enzymatic radiometric [Km ATP] KinaseProfiler LeadHunter assay, kinase: CK2-alpha2, catalogue number: 14-689KP The assay has been performed by Eurofins Discovery.; settings: ATP concentration 10.0 uM, Test compound concentration 10.0 uM
Sequence (P19784 whole entry, looked up): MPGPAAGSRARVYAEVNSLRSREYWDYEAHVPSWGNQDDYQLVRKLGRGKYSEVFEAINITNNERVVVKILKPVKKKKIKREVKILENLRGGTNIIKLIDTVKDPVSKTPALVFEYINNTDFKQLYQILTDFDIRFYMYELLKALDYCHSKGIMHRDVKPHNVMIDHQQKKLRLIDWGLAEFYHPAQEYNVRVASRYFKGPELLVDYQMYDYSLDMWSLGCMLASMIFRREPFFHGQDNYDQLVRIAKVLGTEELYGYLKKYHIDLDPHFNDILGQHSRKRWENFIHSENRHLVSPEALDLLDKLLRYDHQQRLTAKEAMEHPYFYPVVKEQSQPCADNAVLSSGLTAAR
Field: Activity. Provide a value for each of the compounds that follow.
Answers are plain numbers, in %.

Example compounds with recorded Activity:
C[C@H](C(=O)O)[C@@H](NC(=O)c1ncnc2[nH]ccc12)c1ccc(Br)cc1
91
Cn1ncc(-c2cc3c(N[C@@H](c4ccc5c(n4)OCCO5)C(C)(C)C)ncnc3[nH]2)c1C#N
92
CNCc1cc(-c2cc3c(N[C@@H](c4ccc5c(c4)S(=O)(=O)CCC5)C(C)C)ncnc3[nH]2)co1
90
COc1ccc([C@@H](Cc2nnn[nH]2)NC(=O)c2ncnc3[nH]ccc23)cc1
88
CC(C)[C@H](Nc1ncnc2[nH]c(-c3cnn(C)c3C#N)cc12)c1ccc2c(n1)OCCO2
95
Cc1nn(C)cc1-c1cc2c(N[C@H](c3ccc4c(c3)S(=O)(=O)CCC4)C(C)C)ncnc2[nH]1
92
CNC(=O)Cn1cc(-c2cc3c(N[C@@H](c4ccc5c(c4)S(=O)(=O)CCC5)C(C)C)ncnc3[nH]2)cn1
88
CC(C)[C@@H](Nc1ncnc2[nH]c(C(=O)N[C@@H]3CCN(C)C3)cc12)c1ccc2c(c1)S(=O)(=O)CCC2
98
COc1ccc([C@H](Cc2nnn[nH]2)NC(=O)c2ncnc3[nH]ccc23)cc1
93
CC(C)[C@@H](Nc1ncnc2[nH]ccc12)c1ccc2c(c1)S(=O)(=O)CCC2
90

Next compound, Activity to be filled in.
Please fill in: Activity reported for CC(C)[C@H](Nc1ncnc2[nH]ccc12)c1ccc2c(c1)S(=O)(=O)CCC2 = 87

----------
target: ALK tyrosine kinase receptor (Homo sapiens); experiment: Enzymatic radiometric [Km ATP] KinaseProfiler LeadHunter assay, kinase: ALK, catalogue number: 14-555KP The assay has been performed by Eurofins Discovery.; details: ATP concentration 200.0 uM, Test compound concentration 10.0 uM
Field: Activity. Provide a value for each of the compounds that follow.
Answers are plain numbers, in %.

Example compounds with recorded Activity:
CC(C)[C@H](Nc1ncnc2[nH]c(-c3cnn(C)c3C#N)cc12)c1ccc2c(n1)OCCO2
116
CC(C)[C@H](Nc1ncnc2[nH]ccc12)c1ccc2c(c1)S(=O)(=O)CCC2
100
Cc1nn(C)cc1-c1cc2c(N[C@H](c3ccc4c(c3)S(=O)(=O)CCC4)C(C)C)ncnc2[nH]1
99
CNC(=O)Cn1cc(-c2cc3c(N[C@@H](c4ccc5c(c4)S(=O)(=O)CCC5)C(C)C)ncnc3[nH]2)cn1
95

Give measured Activity for every item shown.
1. COc1ccc([C@H](Cc2nnn[nH]2)NC(=O)c2ncnc3[nH]ccc23)cc1
2. CNCc1cc(-c2cc3c(N[C@@H](c4ccc5c(c4)S(=O)(=O)CCC5)C(C)C)ncnc3[nH]2)co1
3. CC(C)[C@@H](Nc1ncnc2[nH]ccc12)c1ccc2c(c1)S(=O)(=O)CCC2
4. C[C@H](C(=O)O)[C@@H](NC(=O)c1ncnc2[nH]ccc12)c1ccc(Br)cc1
5. CC(C)[C@@H](Nc1ncnc2[nH]c(C(=O)N[C@@H]3CCN(C)C3)cc12)c1ccc2c(c1)S(=O)(=O)CCC2
6. COc1ccc([C@@H](Cc2nnn[nH]2)NC(=O)c2ncnc3[nH]ccc23)cc1
7. Cn1ncc(-c2cc3c(N[C@@H](c4ccc5c(n4)OCCO5)C(C)(C)C)ncnc3[nH]2)c1C#N

Data returned:
1. 106
2. 99
3. 93
4. 99
5. 106
6. 95
7. 117
